TEST TARGET: IRAK4 (Homo sapiens (Human), UniProt Q9NWZ3)
Sequence (Q9NWZ3 whole entry): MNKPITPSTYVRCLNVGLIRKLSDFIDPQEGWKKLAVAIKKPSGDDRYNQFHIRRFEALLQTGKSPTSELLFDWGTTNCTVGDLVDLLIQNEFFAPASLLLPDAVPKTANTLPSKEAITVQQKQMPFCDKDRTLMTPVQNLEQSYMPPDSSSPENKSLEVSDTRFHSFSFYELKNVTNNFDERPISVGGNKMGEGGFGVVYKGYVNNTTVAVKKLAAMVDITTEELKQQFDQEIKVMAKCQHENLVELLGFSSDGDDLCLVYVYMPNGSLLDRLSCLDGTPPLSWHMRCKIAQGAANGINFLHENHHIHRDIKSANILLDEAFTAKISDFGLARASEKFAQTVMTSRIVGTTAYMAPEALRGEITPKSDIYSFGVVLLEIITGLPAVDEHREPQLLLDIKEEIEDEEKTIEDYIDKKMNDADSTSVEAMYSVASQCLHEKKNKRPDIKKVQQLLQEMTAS
PROTOCOL DESCRIPTION: hPBMC IRAK4 degradation flow assay
Assay type: cell-based
CONDITIONS: hPBMC monocyte, 20 hr, flow assay; read-out: IRAK4 degradation in hPBMC monocyte at 20 hr: Average external Abs DC50
Measured DC50 accompanies every entry in the list below.

# example entries with known answers
[[record]]
compound = "Cn1c(=O)n(C2CCC(=O)NC2=O)c2cccc(CCCOC[C@H]3CN(C[C@H]4CC[C@H](n5cc(NC(=O)c6cnn7ccc(N8CCOCC8)nc67)c(C(F)F)n5)CC4)CCO3)c21 (stereo partly shown)"
measurement_label = "DC50"
reported_measurement = "< 10 nM"

[[record]]
compound = "CN(CCCOCCCNc1cccc2c1C(=O)N(C1CCC(=O)NC1=O)C2=O)Cc1ccc(-n2cc(NC(=O)c3cnn4ccc(N5C[C@H]6C[C@@H]5CO6)nc34)c(C(F)F)n2)cc1 (stereo partly shown)"
measurement_label = "DC50"
reported_measurement = "10 to 100 nM"

[[record]]
compound = "Cn1c(=O)n(C2CCC(=O)NC2=O)c2cccc(CCC(=O)N3CCC4(CC3)CN(C[C@H]3CC[C@H](n5cc(NC(=O)c6cnn7ccc(N8C[C@H]9C[C@@H]8CO9)nc67)c(C(F)F)n5)CC3)C4)c21 (stereo partly shown)"
measurement_label = "DC50"
reported_measurement = "< 10 nM"

[[record]]
compound = "O=C1CCC(N2C(=O)c3cccc(NCCCOCC4CCN(C[C@H]5CC[C@H](n6cc7cc(NC(=O)c8cccc(C(F)(F)F)n8)c(C(F)F)cc7n6)CC5)CC4)c3C2=O)C(=O)N1 (stereo partly shown)"
measurement_label = "DC50"
reported_measurement = "10 to 100 nM"

[[record]]
compound = "Cn1c(=O)n(C2CCC(=O)NC2=O)c2cccc(C#CCN3CCC4(CC3)CN(C(=O)[C@H]3CC[C@H](n5cc(NC(=O)c6cnn7ccc(N8C[C@H]9C[C@@H]8CO9)nc67)c(C(F)F)n5)CC3)C4)c21 (stereo partly shown)"
measurement_label = "DC50"
reported_measurement = "10 to 100 nM"


Request: Supply reported DC50 belonging to this compound: CC(C)(O)c1cc2nn([C@H]3CC[C@H](CN4CCC5(CC4)CC(Nc4cccc6c4C(=O)N(C4CCC(=O)NC4=O)C6=O)C5)CC3)cc2cc1NC(=O)c1cccc(C(F)(F)F)n1 (stereo partly shown)
Result: < 10 nM

Request: Supply reported DC50 belonging to this compound: Cn1c(=O)n(C2CCC(=O)NC2=O)c2ccc(CCCN3CC4(CCN(C(=O)c5ccc(C6N=C(NC(=O)c7cnn8ccc(N9C[C@H]%10C[C@@H]9CO%10)nc78)C(C(F)F)=N6)cc5)CC4)C3)cc21 (stereo partly shown)
Result: < 10 nM
